Origin of values: patent US8916681B2

# assayed.system: GPR54 (Homo sapiens)
# test.description: Inositol phosphate (IP) antagonism assay: inhibition of 10 nM kisspeptin-10 stimulation of IP in CHO/gpr-54 cells
# Type: cell-based
# Parameters: G. Vassart, Univ; Brussels
# test.parameters: CHO cells; 10 nM kisspeptin-10; unit inferred, given in M
Non-standard residues stand in square brackets, D forms with d. Residues, ends and D or L forms follow the SMILES beside them.
observed.property: IC50 (nM)

(1) CC(=O)N[C@@H](Cc1ccccc1)C(=O)NCC(=O)N[C@H](Cc1ccccc1)C(=O)N[C@@H](CCCNC(=N)N)C(=O)N[C@@H](Cc1c[nH]c2ccccc12)C(N)=O [Peptide 190] (Ac-FG[dF]RW-NH2)
(2) CC(=O)N[C@@H](Cc1ccccc1)C(=O)NCC(=O)N[C@@H](C)C(=O)N[C@@H](CCCNC(=N)N)C(=O)N[C@@H](Cc1c[nH]c2ccccc12)C(N)=O [Peptide 201] (Ac-FGARW-NH2)
Pick one: 1 or 2 . Which one has the lower reported IC50? Give the label of your selection.
2

* * *

# assayed.system: GPR54 (Homo sapiens, UniProt Q969F8)
# Sequence (Q969F8 whole entry): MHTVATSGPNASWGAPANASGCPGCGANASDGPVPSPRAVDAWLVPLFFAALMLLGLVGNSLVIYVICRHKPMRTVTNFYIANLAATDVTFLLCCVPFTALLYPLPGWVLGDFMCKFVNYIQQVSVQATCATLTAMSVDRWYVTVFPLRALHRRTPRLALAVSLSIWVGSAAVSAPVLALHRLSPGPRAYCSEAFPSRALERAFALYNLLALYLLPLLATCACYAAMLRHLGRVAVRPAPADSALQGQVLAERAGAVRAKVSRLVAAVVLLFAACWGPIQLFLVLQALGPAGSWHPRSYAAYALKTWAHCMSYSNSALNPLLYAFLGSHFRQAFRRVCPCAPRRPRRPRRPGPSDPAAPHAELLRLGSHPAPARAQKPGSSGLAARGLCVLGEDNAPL
# test.description: Inositol phosphate (IP) antagonism assay: inhibition of 10 nM kisspeptin-10 stimulation of IP in CHO/gpr-54 cells
# Format: cell-based
# Parameters: G. Vassart, Univ; Brussels
# test.parameters: CHO cells; 10 nM kisspeptin-10
Non-standard residues stand in square brackets, D forms with d. Residues, ends and D or L forms follow the SMILES beside them.
observed.property: Inhibition of IP stimulation by 10 nM Agonist: % Inhibition of Max (%)

CC(=O)N[C@@H](Cc1ccccc1)C(=O)NCC(=O)N[C@@H](CC(C)C)C(=O)N[C@@H](CCCNC(=N)N)C(=O)N[C@@H](Cc1ccccc1)C(N)=O [Peptide 188] (Ac-FGLRF-NH2): 74
CC(=O)N[C@H](C)C(=O)N[C@@H](CC(N)=O)C(=O)N[C@@H](Cc1c[nH]c2ccccc12)C(=O)N[C@@H](CC(N)=O)C(=O)N[C@H](C)C(=O)N[C@@H](Cc1ccccc1)C(=O)NCC(=O)N[C@@H](CC(C)C)C(=O)N[C@@H](CCCNC(=N)N)C(=O)N[C@@H](Cc1ccccc1)C(N)=O [Peptide 277] (Ac-[dA]NWN[dA]FGLRF-NH2): 57
N=C(N)NCCC[C@H](NC(=O)[C@@H](Cc1c[nH]c2ccccc12)NC(=O)CNC(=O)[C@H](Cc1ccccc1)NC(=O)CNC(=O)[C@H](CC(N)=O)NC(=O)[C@H](Cc1c[nH]c2ccccc12)NC(=O)[C@H](CC(N)=O)NC(=O)[C@@H](N)Cc1ccc(O)cc1)C(=O)N[C@@H](Cc1ccccc1)C(N)=O [Peptide 210] (H-YNWNGFG[dW]RF-NH2): 64
CC(=O)N[C@@H](Cc1ccccc1)C(=O)NCC(=O)N[C@H](Cc1ccccc1)C(=O)N[C@@H](CCCNC(=N)N)C(=O)N[C@@H](Cc1c[nH]c2ccccc12)C(N)=O [Peptide 190] (Ac-FG[dF]RW-NH2): 71

* * *

# assayed.system: UniProtKB Q969F8
# test.description: Inositol phosphate (IP) antagonism assay: inhibition of 10 nM kisspeptin-10 stimulation of IP in CHO/gpr-54 cells
# Format: cell-based
# Set-up: G. Vassart, Univ; Brussels
# test.parameters: CHO cells; 10 nM kisspeptin-10
Residues, ends and D or L forms follow the SMILES beside them.
observed.property: Inhibition of IP stimulation by 10 nM Agonist: % Inhibition of Max (%)
Please give a number only; it is taken to be in %.

Kindly indicate its recorded Inhibition of IP stimulation by 10 nM Agonist: % Inhibition of Max. Item: CC(=O)N[C@@H](Cc1ccccc1)C(=O)NCC(=O)N[C@@H](C)C(=O)N[C@@H](CCCNC(=N)N)C(=O)N[C@@H](Cc1c[nH]c2ccccc12)C(N)=O [Peptide 201] (Ac-FGARW-NH2)
69

* * *

# assayed.system: GPR54 (Homo sapiens)
# test.description: Inositol phosphate (IP) antagonism assay: inhibition of 10 nM kisspeptin-10 stimulation of IP in CHO/gpr-54 cells
# Assay type: cell-based
# Set-up: G. Vassart, Univ; Brussels
# test.parameters: CHO cells; 10 nM kisspeptin-10
Non-standard residues stand in square brackets, D forms with d. Residues, ends and D or L forms follow the SMILES beside them.
observed.property: Inhibition of IP stimulation by 10 nM Agonist: % Inhibition of Max (%)

CC(=O)N[C@H](Cc1ccc(O)cc1)C(=O)N[C@@H](CC(N)=O)C(=O)N[C@@H](Cc1c[nH]c2ccccc12)C(=O)N[C@@H](CC(N)=O)C(=O)NCC(=O)N[C@H](Cc1c[nH]c2ccccc12)C(=O)NCC(=O)N[C@H](Cc1c[nH]c2ccccc12)C(=O)N[C@@H](CCCNC(=N)N)C(=O)N[C@@H](Cc1ccccc1)C(N)=O [Peptide 245] (Ac-[dY]NWNG[dW]G[dW]RF-NH2): 66
CC(=O)N[C@H](C)C(=O)N[C@@H](CC(N)=O)C(=O)N[C@@H](Cc1c[nH]c2ccccc12)C(=O)N[C@@H](CC(N)=O)C(=O)NCC(=O)N[C@@H](Cc1ccccc1)C(=O)NCC(=O)N[C@@H](CC(C)C)C(=O)N[C@H](CCCNC(=N)N)C(=O)N[C@@H](Cc1ccccc1)C(N)=O [Peptide 278] (Ac-[dA]NWNGFGL[dR]F-NH2): 47
CC(=O)N[C@@H](C)C(=O)NCC(=O)N[C@@H](CC(C)C)C(=O)N[C@@H](CCCNC(=N)N)C(=O)N[C@@H](Cc1c[nH]c2ccccc12)C(N)=O [Peptide 202] (Ac-AGLRW-NH2): 64
CC(=O)N[C@H](Cc1c[nH]c2ccccc12)C(=O)N[C@@H](CC(N)=O)C(=O)N[C@@H](Cc1c[nH]c2ccccc12)C(=O)N[C@@H](CC(N)=O)C(=O)NCC(=O)N[C@@H](Cc1ccccc1)C(=O)NCC(=O)N[C@H](Cc1c[nH]c2ccccc12)C(=O)N[C@@H](CCCNC(=N)N)C(=O)N[C@@H](Cc1ccccc1)C(N)=O [Peptide 243] (Ac-[dW]NWNGFG[dW]RF-NH2): 55
CC(=O)N[C@@H](CC(N)=O)C(=O)N[C@@H](CO)C(=O)N[C@@H](Cc1ccccc1)C(=O)NCC(=O)N[C@@H](CC(C)C)C(=O)N[C@@H](CCCNC(=N)N)C(=O)N[C@@H](Cc1ccccc1)C(N)=O [Peptide 186] (Ac-NSFGLRF-NH2): 70
CC(=O)N[C@@H](Cc1ccccc1)C(=O)NCC(=O)N[C@H](Cc1c[nH]c2ccccc12)C(=O)N[C@@H](CCCNC(=N)N)C(=O)N[C@@H](Cc1ccccc1)C(N)=O [Peptide 206] (Ac-FG[dW]RF-NH2): 68
CC(C)C[C@H](NC(=O)CNC(=O)[C@@H](Cc1c[nH]c2ccccc12)NC(=O)CNC(=O)[C@H](CC(N)=O)NC(=O)[C@H](Cc1c[nH]c2ccccc12)NC(=O)[C@H](CC(N)=O)NC(=O)[C@@H](N)Cc1ccc(O)cc1)C(=O)N[C@@H](CCCNC(=N)N)C(=O)N[C@@H](Cc1ccccc1)C(N)=O [Peptide 212] (H-YNWNG[dW]GLRF-NH2): 68
CC(=O)N[C@H](Cc1ccc(O)cc1)C(=O)N[C@@H](CC(N)=O)C(=O)N[C@@H](Cc1c[nH]c2ccccc12)C(=O)N[C@@H](CC(N)=O)C(=O)NCC(=O)N[C@@H](Cc1ccccc1)C(=O)NCC(=O)N[C@@H](Cc1c[nH]c2ccccc12)C(=O)N[C@@H](CCCNC(=N)N)C(=O)N[C@@H](Cc1ccccc1)C(N)=O [Peptide 237] (Ac-[dY]NWNGFGWRF-NH2): 0
CC(=O)N[C@H](Cc1ccc(O)cc1)C(=O)N[C@H](CC(N)=O)C(=O)N[C@@H](Cc1c[nH]c2ccccc12)C(=O)N[C@@H](CC(N)=O)C(=O)N[C@@H](CO)C(=O)N[C@@H](Cc1ccccc1)C(=O)NCC(=O)N[C@@H](Cc1c[nH]c2ccccc12)C(=O)N[C@@H](CCCNC(=N)N)C(=O)N[C@@H](Cc1ccccc1)C(N)=O [Peptide 239] (Ac-[dY][dN]WNSFGWRF-NH2): 0
CC(C)C[C@H](NC(=O)CNC(=O)[C@@H](Cc1ccccc1)NC(=O)CNC(=O)[C@H](CC(N)=O)NC(=O)[C@H](Cc1c[nH]c2ccccc12)NC(=O)[C@H](CC(N)=O)NC(=O)[C@@H](N)Cc1ccc(O)cc1)C(=O)N[C@@H](CCCNC(=N)N)C(=O)N[C@@H](Cc1ccccc1)C(N)=O [Peptide 211] (H-YNWNG[dF]GLRF-NH2): 73
CC(=O)N[C@@H](Cc1ccc(O)cc1)C(=O)N[C@@H](CC(N)=O)C(=O)N[C@H](Cc1c[nH]c2ccccc12)C(=O)N[C@@H](CC(N)=O)C(=O)NCC(=O)N[C@@H](Cc1ccccc1)C(=O)NCC(=O)N[C@H](Cc1c[nH]c2ccccc12)C(=O)N[C@@H](CCCNC(=N)N)C(=O)N[C@@H](Cc1ccccc1)C(N)=O [Peptide 231] (Ac-YN[dW]NGFG[dW]RF-NH2): 55
CC(=O)N[C@@H](Cc1ccccc1)C(=O)NCC(=O)N[C@@H](CC(C)C)C(=O)N[C@H](CCCNC(=N)N)C(=O)N[C@@H](Cc1c[nH]c2ccccc12)C(N)=O [Peptide 200]: 63
CC(=O)N[C@@H](Cc1ccccc1)C(=O)NCC(=O)N[C@H](CC(C)C)C(=O)N[C@@H](CCCNC(=N)N)C(=O)N[C@@H](Cc1c[nH]c2ccccc12)C(N)=O [Peptide 191]: 79
